# tested.on: KRAS (Homo sapiens)
# Construct: Whole cell extracts were prepared using an immunoprecipitation (IP) lysis buffer; endogenous in cells; host or cells: HEK293
# Sequence (P01116 1-188 isoform P01116-2): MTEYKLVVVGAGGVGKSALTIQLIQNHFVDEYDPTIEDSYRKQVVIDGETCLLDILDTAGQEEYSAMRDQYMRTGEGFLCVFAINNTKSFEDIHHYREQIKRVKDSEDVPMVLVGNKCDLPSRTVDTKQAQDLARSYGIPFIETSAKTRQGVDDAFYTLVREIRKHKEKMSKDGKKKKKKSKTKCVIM
# assay.name: Protein degradation assay (western blot) in HEK293 cells
# Type: cell-based
# condition.summary: compound 3 μM, 6 h
# Method: HEK293 cells were grown in RPMI 1640 media supplemented with 10% fetal bovine serum, streptomycin, and penicillin. The cells were plated in 24-well plates in the growth media. The cells were then treated with a compound at indicated concentrations for 6 h. […] For a western blot analysis, the whole cell protein extracts were separated on 4-12% SDS-polyacrylamide gels, transferred to nitrocellulose, and probed with primary antibodies. […] The signals were detected using an ODYSSEY® Imaging System. […]
Each entry gets condition not met if its percent KRAS protein degradation at 3 µM stays under 7%, and condition met if its percent KRAS protein degradation at 3 µM is 7% or above.

compound | assigned.class
Cc1nn2c(N3CCN(CCO)CC3)cc(-c3cccc(CCOCCNC(=O)CC45CC6CC(CC(C6)C4)C5)c3)nc2c1-c1ccccc1 [Compound A4] | condition met
Cc1nn2c(N3CCN(CCO)CC3)cc(-c3cccc(CCOCCOC(=O)CC45CC6CC(CC(C6)C4)C5)c3)nc2c1-c1ccccc1 [Compound A3] | condition not met
Cc1nn2c(N3CCN(CCO)CC3)cc(-c3cccc(CCNC(=O)CC45CC6CC(CC(C6)C4)C5)c3)nc2c1-c1ccccc1 [Compound A2] | condition met
Cc1nn2c(N3CCN(CCO)CC3)cc(-c3cccc(CCCCCCCCCOC(=O)CC45CC6CC(CC(C6)C4)C5)c3)nc2c1-c1ccccc1 [Compound A6] | condition met
Cc1nn2c(N3CCN(CCO)CC3)cc(-c3ccccc3)nc2c1-c1ccccc1 [drawing 106, reference compound] | condition not met
Cc1nn2c(N3CCN(CCO)CC3)cc(-c3ccccc3)nc2c1-c1cccc(CCCCCCCCCNC(=O)CC23CC4CC(CC(C4)C2)C3)c1 [Compound C2] | condition not met
Cc1nn2c(N3CCN(CCO)CC3)cc(-c3cccc(C#CCCCCCCCOC(=O)CC45CC6CC(CC(C6)C4)C5)c3)nc2c1-c1ccccc1 [Compound A5] | condition not met

----------
# tested.on: KRAS (Homo sapiens)
# Construct: Whole cell extracts were prepared using an immunoprecipitation (IP) lysis buffer; endogenous in cells; host or cells: HEK293
# assay.name: Protein degradation assay (western blot) in HEK293 cells
# Format: cell-based
# condition.summary: compound 5 μM, 6 h

smiles.input | KRAS Protein Degradation (%) 5 μM
Cc1nn2c(N3CCN(CCO)CC3)cc(-c3cccc(CCOCCOC(=O)CC45CC6CC(CC(C6)C4)C5)c3)nc2c1-c1ccccc1 | 0
Cc1nn2c(N3CCN(CCO)CC3)cc(-c3ccccc3)nc2c1-c1cccc(CCCCCCCCCNC(=O)CC23CC4CC(CC(C4)C2)C3)c1 | 0
Cc1nn2c(N3CCN(CCO)CC3)cc(-c3cccc(CCOCCNC(=O)CC45CC6CC(CC(C6)C4)C5)c3)nc2c1-c1ccccc1 | 51

----------
# tested.on: KRAS (Homo sapiens)
# Construct: Whole cell extracts were prepared using an immunoprecipitation (IP) lysis buffer; endogenous in cells; host or cells: HEK293
# assay.name: Protein degradation assay (western blot) in HEK293 cells
# Assay type: cell-based
# condition.summary: compound 5 μM, 6 h
Reported KRAS Protein Degradation (%) 5 μM is given for each of the following compounds.

smiles.input | display.unit | KRAS Protein Degradation (%) 5 μM
Cc1nn2c(N3CCN(CCO)CC3)cc(-c3cccc(CCNC(=O)CC45CC6CC(CC(C6)C4)C5)c3)nc2c1-c1ccccc1 | % | 54
Cc1nn2c(N3CCN(CCO)CC3)cc(-c3cccc(CCCCCCCCCNC(=O)CC45CC6CC(CC(C6)C4)C5)c3)nc2c1-c1ccccc1 | % | 27
Cc1nn2c(N3CCN(CCO)CC3)cc(-c3cccc(C#CCCCCCCCOC(=O)CC45CC6CC(CC(C6)C4)C5)c3)nc2c1-c1ccccc1 | % | 18
Cc1nn2c(N3CCN(CCO)CC3)cc(-c3cccc(CCCCCCCCCOC(=O)CC45CC6CC(CC(C6)C4)C5)c3)nc2c1-c1ccccc1 | % | 28

Source of measurements: patent US20240190885A1
